Recorded values, source patent US20100216758A1.

- experimentalTarget: human MCH-1R (Homo sapiens, UniProt Q99705)
- Sequence (Q99705 whole entry): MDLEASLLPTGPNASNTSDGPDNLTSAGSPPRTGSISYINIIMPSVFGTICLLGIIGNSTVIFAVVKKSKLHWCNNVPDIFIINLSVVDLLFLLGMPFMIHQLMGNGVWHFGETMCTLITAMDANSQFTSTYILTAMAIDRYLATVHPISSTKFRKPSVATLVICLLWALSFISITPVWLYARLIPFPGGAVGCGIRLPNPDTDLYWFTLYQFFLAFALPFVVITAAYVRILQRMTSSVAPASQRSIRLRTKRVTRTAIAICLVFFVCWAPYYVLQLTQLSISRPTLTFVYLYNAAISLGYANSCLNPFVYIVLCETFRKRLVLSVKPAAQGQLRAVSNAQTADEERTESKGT

smilesNotation | IC50
O=c1cc(OCc2ccc(Cl)cn2)ccn1CCc1ccc(CN2CCCC2)cc1 | 5.8 nM
O=c1cc(OCc2ccc(Cl)cc2)ccn1CCc1ccc(CN2C3CCC2CC3)cc1 | 3 nM
